- Procedure summary: Cytotoxicity against human MCF7 cells expressing Tdp1 assessed as reduction in cell viability measured after 72 hrs by MTT assay
- Assay type: toxicity, cell-based
- Experimental conditions: MCF7 cells expressing Tdp1
Property: CC50 at 72 h

Query: What CC50 at 72 h value was documented for this compound, `CC1(C)[C@@H]2CC=C(COc3ccc4c5c(c(=O)oc4c3)CCC5)[C@H]1C2` ?
Response: > 100 µM

---

- Target: Tyrosyl-DNA phosphodiesterase 1 (Homo sapiens, UniProt Q9NUW8)
- Sequence (Q9NUW8 whole entry): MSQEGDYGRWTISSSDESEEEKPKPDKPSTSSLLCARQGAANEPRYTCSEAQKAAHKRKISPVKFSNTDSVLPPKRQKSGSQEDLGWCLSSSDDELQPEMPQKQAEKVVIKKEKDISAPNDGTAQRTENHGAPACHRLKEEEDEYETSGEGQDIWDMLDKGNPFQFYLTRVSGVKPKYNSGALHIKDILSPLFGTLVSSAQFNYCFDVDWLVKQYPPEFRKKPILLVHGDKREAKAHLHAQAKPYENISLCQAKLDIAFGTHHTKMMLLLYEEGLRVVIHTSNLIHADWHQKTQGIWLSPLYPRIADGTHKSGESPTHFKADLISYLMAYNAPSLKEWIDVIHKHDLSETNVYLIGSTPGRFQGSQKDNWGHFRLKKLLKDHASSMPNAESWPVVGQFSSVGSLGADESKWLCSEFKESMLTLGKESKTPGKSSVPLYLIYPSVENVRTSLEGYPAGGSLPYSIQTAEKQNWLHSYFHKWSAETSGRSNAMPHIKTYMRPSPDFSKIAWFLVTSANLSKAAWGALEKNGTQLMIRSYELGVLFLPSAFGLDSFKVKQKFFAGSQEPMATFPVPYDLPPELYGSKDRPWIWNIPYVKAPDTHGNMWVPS
- Procedure summary: Reversal of Tdp1-mediated drug resistance in human MCF7 cells assessed as camptothecin CC50 at 5 uM measured after 72 hrs by MTT assay (reference value: 1430 +/- 430 nM)
- Type: cell-based
Property: CC50 (nM)
// note: answer is a bare numeric in nM

Query: Please report the recorded CC50 for `CC1(C)[C@@H]2CC=C(COc3ccc4c5c(c(=O)oc4c3)CCCC5)[C@H]1C2` .
Response: 410

Query: What value of measured CC50 is listed for `CC1(C)[C@H]2CC=C(COc3ccc4c5c(c(=O)oc4c3)CCC5)[C@@H]1C2` ?
Response: 330

---

- Target: Tyrosyl-DNA phosphodiesterase 1 (Homo sapiens)
Property: pIC50
Please treat pIC50 as minus the base-10 logarithm of the molar concentration.

>  <Smiles representation>
CC1(C)[C@@H]2CC=C(COc3ccc4c5c(c(=O)oc4c3)CCC5)[C@H]1C2

>  <pIC50>
6.17

$$$$

Query: Give the measured pIC50 of `CC1(C)[C@@H]2CC=C(COc3ccc4c5c(c(=O)oc4c3)CCCC5)[C@H]1C2` .
Response: 5.92

Query: Which pIC50 reading was recorded for the molecule `CC1(C)[C@H]2CC=C(COc3ccc4c5c(c(=O)oc4c3)CCC5)[C@@H]1C2` ?
Response: 5.86

Query: Record request: pIC50 value, item `CC1(C)[C@H]2CC=C(CCOc3ccc4c5c(c(=O)oc4c3)CCC5)[C@@H]1C2`
Response: 5.96

Query: For the molecule shown here, `Cc1cc(=O)oc2cc(OCC3=CC[C@H]4C[C@@H]3C4(C)C)ccc12` , give the reported pIC50.
Response: 5.81

---

- Procedure summary: Cytotoxicity against human MCF7 cells expressing Tdp1 assessed as reduction in cell viability measured after 72 hrs by MTT assay
- Assay type: toxicity, cell-based
- Experimental conditions: mcf7, 72 h
Property: Activity

>  <Smiles representation>
Cc1cc(=O)oc2cc(OCC3=CC[C@@H]4C[C@H]3C4(C)C)ccc12

>  <Observed>
Toxic

$$$$
>  <Smiles representation>
CC1(C)[C@H]2CC=C(CCOc3ccc4c5c(c(=O)oc4c3)CCC5)[C@@H]1C2

>  <Observed>
Dose-dependent effect

$$$$
>  <Smiles representation>
Cc1cc(=O)oc2cc(OCC3=CC[C@H]4C[C@@H]3C4(C)C)ccc12

>  <Observed>
Toxic

$$$$
>  <Smiles representation>
CC1(C)[C@H]2CC=C(CCOc3ccc4c5c(c(=O)oc4c3)CCCC5)[C@@H]1C2

>  <Observed>
Dose-dependent effect

$$$$

---

Below are IC50 values recorded for Tyrosyl-DNA phosphodiesterase 1 (Homo sapiens, UniProt Q9NUW8).
Answer format: numeric, µM implied, no suffix.

>  <Smiles representation>
Cc1cc(=O)oc2cc(OCC3=CC[C@@H]4C[C@H]3C4(C)C)ccc12

>  <Property>
IC50

>  <Observed>
4.31

$$$$
>  <Smiles representation>
COc1cccc(COc2ccc3c4c(c(=O)oc3c2)CCCC4)c1

>  <Property>
IC50

>  <Observed>
4.93

$$$$
>  <Smiles representation>
CC1(C)[C@H]2CC=C(CCOc3ccc4c5c(c(=O)oc4c3)CCCC5)[C@@H]1C2

>  <Property>
IC50

>  <Observed>
1.45

$$$$

Shift focus to the following entry.
Query: Hello, I am looking for reported IC50 with Tyrosyl-DNA phosphodiesterase 1 (Homo sapiens, UniProt Q9NUW8) for `CC1(C)[C@H]2CC=C(COc3ccc4c5c(c(=O)oc4c3)CCCC5)[C@@H]1C2` . Could you help?
Response: 1.23
